- ASSAY NAME: chemical genetic growth profiling, strain panel (AID 1159580);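 further: tested at 20 µM; growth read once vehicle control cultures reached saturation at 30 °C; 1 = growth at the plate median or of vehicle wells; lower values mean less growth of the strain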
- CONDITION SUMMARY: S. cerevisiae deletion strains, growth OD, locus YJL129C, strain trk1, hits give low values
Screen size: about 5,500 compounds; about 2,000 (36%) were called active. Roughly 18% stayed inconclusive and do not appear here. Some of the results follow.
MEASURED PROPERTY: normalized growth
Simply state the number, no unit and no words.

Using the record for CN(C)CCOC(c1ccc(Cl)cc1)c1ccccn1 (configuration not stated) , state its measured normalized growth. 1.05

Using the record for CC(C)NCC(O)COc1cccc2[nH]ccc12 (configuration not stated) , state its measured normalized growth. 0.997

Using the record for CC[C@@H](C(=O)C(C)[C@@H](O)[C@H](C)CCc1ccc(C)c(O)c1C(=O)O)C1OC(CC)(C2CC[C@](O)(CC)[C@H](C)O2)C[C@@H]1C (some centres not stated) , state its measured normalized growth. 0.976

Using the record for C=C[C@@](C)(O)CCC1C(=C)C[C@H](O)C2C(C)(C)CCCC12C (some centres not stated) , state its measured normalized growth. 0.966

Using the record for CC1(C)S[C@@H]2[C@H](NC(=O)[C@H](N)c3ccccc3)C(=O)N2[C@H]1C(=O)O , state its measured normalized growth. 0.913

Using the record for C=C[C@@](C)(O)CCC1C(=C)CCC2[C@@](C)(CO)CCC[C@]12C (some centres not stated) , state its measured normalized growth. 1.02

Using the record for C=C[C@@](C)(O)CCC1C(=C)C[C@H](OC(C)=O)C2C(C)(C)CCCC12C (some centres not stated) , state its measured normalized growth. 0.995

Using the record for O=c1cccc2ccc(O)c(O)c2c1O , state its measured normalized growth. 0.562

Using the record for CC#CC1(O)CCC2C3CCC4=CC(=O)CCC4=C3C(c3ccc(N(C)C)cc3)CC21C (configuration not stated) , state its measured normalized growth. 0.946

Using the record for COC(=O)[C@@H]1OC(=O)C2OC23[C@@]1(C)CCC1[C@]2(C)C(C[C@H](O)[C@]13C)C(C)(C)[C@H](OC(C)=O)C[C@@H]2OC(C)=O (some centres not stated) , state its measured normalized growth. 1

Using the record for O=C(O)/C=C/c1ccc(O)c(O)c1 , state its measured normalized growth. 1

Using the record for COC(=O)c1cc(=O)c(O)c2c(O)c(O)ccc2c1 , state its measured normalized growth. 0.997

Using the record for O=C1CCC(N2C(=O)c3ccccc3C2=O)C(=O)N1 (configuration not stated) , state its measured normalized growth. 1.03

Using the record for C[C@@H]1CC(Cl)CC[C@H]1C(=O)OC(C)(C)C (some centres not stated) , state its measured normalized growth. 0.975

Using the record for c1ccc2c(c1)CCCC2C1=NCCN1 (configuration not stated) , state its measured normalized growth. 1.02

Using the record for CCOC(=O)n1ccn(C)c1=S , state its measured normalized growth. 0.974

Using the record for C=CC[C@]1(O)CCC2C3CCC4=CC(=O)CCC4=C3C=C[C@@]21C (some centres not stated) , state its measured normalized growth. 0.91

Using the record for Cc1ncc(CNC(=O)N(CCCl)N=O)c(N)n1 , state its measured normalized growth. 1.03

Using the record for CCC[C@H](N[C@@H](C)C(=O)N1[C@H](C(=O)O)C[C@@H]2CCCC[C@@H]21)C(=O)OCC , state its measured normalized growth. 1.01

Using the record for C/C=C(\C)C(=O)O[C@H]1C[C@@H](OC(C)=O)[C@@]2(C(=O)OC)CO[C@@H]3C2[C@]12CO[C@](O)(C(=O)OC)[C@H]2[C@](C)(C12O[C@@]1(C)[C@H]1C[C@@H]2OC2OC=C[C@@]21O)[C@@H]3O (some centres not stated) , state its measured normalized growth. 0.978

Using the record for CCCCNC(=O)NS(=O)(=O)c1ccc(C)cc1 , state its measured normalized growth. 1.01

Using the record for CN1CCC(OC(c2ccccc2)c2ccccc2)CC1 , state its measured normalized growth. 0.984
